# credit: patent US9493436B2

system_under_test: LMWPTP (Homo sapiens, UniProt P24666)
Sequence (P24666 1-158): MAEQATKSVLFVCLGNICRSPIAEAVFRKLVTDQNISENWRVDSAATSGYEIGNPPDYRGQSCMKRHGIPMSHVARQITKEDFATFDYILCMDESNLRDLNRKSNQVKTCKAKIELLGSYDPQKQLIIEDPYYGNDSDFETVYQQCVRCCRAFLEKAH
experimental_protocol: PTP selectivity panel: LMWPTP
Assay type: biochemical
Measured IC50 by item
Response body: numeric value in µM, unit text excluded.

mol_smiles: O=C(O)c1cc2c(C#Cc3ccc(OC(F)(F)F)cc3)c(-c3ccccc3)oc2cc1O
system_under_test: LMWPTP (Homo sapiens, UniProt P24666)
IC50, µM: 3

Switching to the query record.
IN: # IC50 lookup, item "O=C(O)c1cc2c(C#Cc3cccc(C(F)(F)F)c3)c(-c3ccccc3)oc2cc1O"
OUT: 4.3

* * *

experimental_protocol: Oral and intravenous pharmacokinetics in mice
Assay type: in vivo
measurement_parameters: mouse, blood; mice, IV 5 mg/kg, data normalized to 25 mg/kg dose; read-out: Cmax (ng/mL)
parameter: Cmax (ng/mL)
Write the number in ng/mL without appending the unit.

IN: Look at this compound and give its reported Cmax. "O=C(O)c1cc2c(C#Cc3cccc(C(F)(F)F)c3)c(-c3ccccc3)oc2cc1O"
OUT: 10200

* * *

system_under_test: TC-PTP (Homo sapiens, UniProt P17706)
Sequence (P17706 whole entry, species assumed): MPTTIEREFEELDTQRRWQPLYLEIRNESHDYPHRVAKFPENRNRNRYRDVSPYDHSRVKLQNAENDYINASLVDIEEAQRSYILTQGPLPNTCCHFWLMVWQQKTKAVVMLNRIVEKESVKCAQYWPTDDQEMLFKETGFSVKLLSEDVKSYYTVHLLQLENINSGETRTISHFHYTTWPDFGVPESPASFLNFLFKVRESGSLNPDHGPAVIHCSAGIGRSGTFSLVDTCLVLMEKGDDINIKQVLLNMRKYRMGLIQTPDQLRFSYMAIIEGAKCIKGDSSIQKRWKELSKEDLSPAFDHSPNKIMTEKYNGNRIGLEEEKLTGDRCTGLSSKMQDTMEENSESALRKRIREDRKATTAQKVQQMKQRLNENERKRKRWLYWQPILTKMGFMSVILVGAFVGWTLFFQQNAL
experimental_protocol: PTP selectivity panel: TC-PTP
Assay type: biochemical
parameter: IC50 (µM)
Express your answer in µM, writing the number without its unit.

mol_smiles: O=C(O)c1cc2c(C#Cc3cc(F)cc(F)c3)c(-c3ccccc3)oc2cc1O
system_under_test: TC-PTP (Homo sapiens, UniProt P17706)
IC50 (µM): 3.8

Would you kindly look at the next entry?
IN: For the compound "O=C(O)c1cc2c(C#Cc3ccc(OC(F)(F)F)cc3)c(-c3ccccc3)oc2cc1O" , what IC50 is on record?
OUT: 3.8

* * *

experimental_protocol: Oral and intravenous pharmacokinetics in mice
Format: in vivo
measurement_parameters: mouse, blood; mice, IV 5 mg/kg
parameter: half-life (min)
Dear colleague, please return just the value in min, with no unit written.

IN: Quick one: half-life for O=C(O)c1cc2c(C#Cc3cccc(C(F)(F)F)c3)c(-c3ccccc3)oc2cc1O [32 (L01Z08)] ?
OUT: 246

* * *

experimental_protocol: Oral and intravenous pharmacokinetics in mice
Format: in vivo
measurement_parameters: mouse, blood; mice, PO 25 mg/kg; read-out: Cmax (ng/mL)
parameter: Cmax (ng/mL)
Express the result in ng/mL but write the number alone.

IN: Find the recorded Cmax belonging to "O=C(O)c1cc2c(C#Cc3cccc(C(F)(F)F)c3)c(-c3ccccc3)oc2cc1O" and report it.
OUT: 2880

* * *

system_under_test: YopH (UniProt P15273)
Sequence (P15273 whole entry, looked up): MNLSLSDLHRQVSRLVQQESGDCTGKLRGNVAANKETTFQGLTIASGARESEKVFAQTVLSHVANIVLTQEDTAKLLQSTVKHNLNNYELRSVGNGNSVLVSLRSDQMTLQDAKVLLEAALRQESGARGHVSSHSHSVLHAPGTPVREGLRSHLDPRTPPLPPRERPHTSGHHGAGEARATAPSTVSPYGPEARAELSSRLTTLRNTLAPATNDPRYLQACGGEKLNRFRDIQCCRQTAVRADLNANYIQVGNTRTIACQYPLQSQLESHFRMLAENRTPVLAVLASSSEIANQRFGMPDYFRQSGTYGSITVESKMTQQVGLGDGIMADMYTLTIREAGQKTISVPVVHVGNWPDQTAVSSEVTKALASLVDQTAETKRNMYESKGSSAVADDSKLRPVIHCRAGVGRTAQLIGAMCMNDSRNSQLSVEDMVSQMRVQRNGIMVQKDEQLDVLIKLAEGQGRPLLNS
Assay type: biochemical
measurement_parameters: read-out: IC50 (μM) YopH
parameter: IC50 (µM)
Could you give me the number in µM? Just the number is fine.

IN: Report IC50 for Cn1c(-c2ccccc2C(F)(F)F)c(I)c2cc(C(=O)O)c(O)cc21 [Compound 207a] please.
OUT: 220

* * *

system_under_test: SHP2-D2C (Homo sapiens)
Sequence (Q06124 224-528 limits assumed): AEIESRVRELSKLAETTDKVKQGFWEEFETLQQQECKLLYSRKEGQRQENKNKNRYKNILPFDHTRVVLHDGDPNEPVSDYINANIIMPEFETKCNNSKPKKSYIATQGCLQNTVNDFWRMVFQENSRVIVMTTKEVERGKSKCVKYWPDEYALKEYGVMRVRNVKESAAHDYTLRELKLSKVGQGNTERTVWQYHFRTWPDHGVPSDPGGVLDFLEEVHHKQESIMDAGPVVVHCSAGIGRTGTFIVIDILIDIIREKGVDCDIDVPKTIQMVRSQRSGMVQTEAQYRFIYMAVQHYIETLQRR
experimental_protocol: biochemical
Assay type: biochemical
parameter: IC50 (µM)
The response must be a number in µM with no trailing unit.

IN: Returns the measured IC50 for the input compound. Input: Cn1c(-c2ccccc2C(F)(F)F)c(I)c2cc(C(=O)O)c(O)cc21 [Compound 207a]
OUT: 87
